Target: MftR I114A (Mycolicibacterium smegmatis, UniProt A0QSB5, I114A)
Assay: ITC binding of oleoyl-CoA to MftR variant
measuredEndpoint: pKd
FYI, pKd means -log10 of a concentration in mol per litre.

IN: Looking for the measured pKd of CCCCCCCC/C=C\CCCCCCCC(=O)SCCNC(=O)CCNC(=O)[C@H](O)C(C)(C)COP(=O)(O)OP(=O)(O)OC[C@H]1O[C@@H](n2cnc3c(N)ncnc32)[C@H](O)[C@@H]1OP(=O)(O)O [oleoyl-CoA] , can you help?
OUT: 5.62

====

Target: MftR L120A (Mycolicibacterium smegmatis, UniProt A0QSB5, L120A)
Test: ITC binding of oleoyl-CoA to MftR variant
measuredEndpoint: Kd (µM)
// units = µM; emit number, no label

IN: Looking for the measured Kd of CCCCCCCC/C=C\CCCCCCCC(=O)SCCNC(=O)CCNC(=O)[C@H](O)C(C)(C)COP(=O)(O)OP(=O)(O)OC[C@H]1O[C@@H](n2cnc3c(N)ncnc32)[C@H](O)[C@@H]1OP(=O)(O)O , can you help?
OUT: 5.2

====

Biological target: MftR L120R (Mycolicibacterium smegmatis, UniProt A0QSB5, L120R)
Sequence (A0QSB5 entry or part of it L120R): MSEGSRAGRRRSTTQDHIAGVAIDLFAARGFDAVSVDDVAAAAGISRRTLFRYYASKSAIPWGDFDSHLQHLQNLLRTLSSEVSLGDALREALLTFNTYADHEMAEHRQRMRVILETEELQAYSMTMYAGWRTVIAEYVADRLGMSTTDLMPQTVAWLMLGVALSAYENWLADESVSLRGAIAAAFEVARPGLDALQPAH
Assay: ITC binding of oleoyl-CoA to MftR variant
Protocol: Finally, we examined the effects of mutations at the interface of the DNA-binding and effector-binding domains. Here, residues Leu120 and Met127 were mutated to arginine and alanine, respectively, and the Kds for oleoyl-CoA and Omft were measured as described previously. Mutant strand synthesis reactions were performed according to the Agilent QuikChange site-directed mutagenesis protocol. The mftR_pET28a plasmid was used as a template for site-directed mutagenesis studies. […]
measuredEndpoint: pKd
FYI, pKd means -log10 of a concentration in mol per litre.

IN: Looking for the measured pKd of CCCCCCCC/C=C\CCCCCCCC(=O)SCCNC(=O)CCNC(=O)[C@H](O)C(C)(C)COP(=O)(O)OP(=O)(O)OC[C@H]1O[C@@H](n2cnc3c(N)ncnc32)[C@H](O)[C@@H]1OP(=O)(O)O , can you help?
OUT: 5.21
